Tested on: MCF7
Test: Antiproliferative activity against human MCF7 cells assessed as reduction in cell viability measured after 48 hrs by MTT assay
Format: functional, cell-based
Conditions: MCF7, 48 h
Observed property: IC50 (µM)
Report as a plain number; the unit µM is understood.

-- ask Name the recorded IC50 of the item COc1cc(-c2n[nH]c3ccc(-c4ccc5c(cnn5C)c4)cc23)cc(OC)c1OC in your answer.
-- reply 0.36

-- ask Name the recorded IC50 of the item COc1cc(-c2ccc3[nH]nc(-c4ccc5c(ccn5C)c4)c3c2)cc(OC)c1OC in your answer.
-- reply 9.98

-- ask Name the recorded IC50 of the item COc1cc2c(c(OC)c1OC)-c1ccc(OC)c(=O)cc1[C@@H](NC(C)=O)CC2 in your answer.
-- reply 0.021

---

Test system: MCF7
Assay: Antiproliferative activity against human MCF7 cells assessed as reduction in cell viability measured after 48 hrs by MTT assay
Assay type: functional, cell-based
Settings: MCF7, 48 h
Observed property: IC50 (nM)
Report as a plain number; the unit nM is understood.

-- ask Name the recorded IC50 of the item COc1cc(-c2n[nH]c3ccc(-c4ccc(F)cc4)cc23)cc(OC)c1OC in your answer.
-- reply 606

-- ask Name the recorded IC50 of the item COc1cc(-c2n[nH]c3ccc(-c4cccc(C#N)c4)cc23)cc(OC)c1OC in your answer.
-- reply 2380

-- ask Name the recorded IC50 of the item COc1cc(-c2cccc3[nH]c(-c4cn(C)c5ccccc45)nc23)cc(OC)c1OC in your answer.
-- reply 176

---

Test system: MCF7
Assay: Antiproliferative activity against human MCF7 cells assessed as reduction in cell viability measured after 48 hrs by MTT assay
Format: functional, cell-based
Conditions: MCF7, 48 h
pIC50: −log10 of the molar value.
Observed property: pIC50

-- ask State recorded pIC50 with MCF7, entry COc1cc(-c2ccc3[nH]nc(-c4ccc(C)cc4)c3c2)cc(OC)c1OC , no comment.
-- reply < 5.00

-- ask State recorded pIC50 with MCF7, entry COc1cc(-c2ccc3[nH]nc(-c4cc(OC)c(OC)c(OC)c4)c3c2)cc(OC)c1OC , no comment.
-- reply < 5.00

-- ask State recorded pIC50 with MCF7, entry COc1cc(-c2ccnc3cc(-c4c[nH]c5ccccc45)nn23)cc([Se]C)c1OC , no comment.
-- reply 6.46

-- ask State recorded pIC50 with MCF7, entry COc1cc(-c2ccc3[nH]nc(-c4ccc(C(=N)NO)cc4)c3c2)cc(OC)c1OC , no comment.
-- reply < 5.00

-- ask State recorded pIC50 with MCF7, entry COc1cc(-c2cccc3[nH]c(-c4cccc5c4ccn5C)nc23)cc(OC)c1OC , no comment.
-- reply 7.74

-- ask State recorded pIC50 with MCF7, entry COc1cc(-c2ccc3[nH]nc(-c4cccc(C(=N)NO)c4)c3c2)cc(OC)c1OC , no comment.
-- reply < 5.00

-- ask State recorded pIC50 with MCF7, entry COc1cc(-c2nccn3c(-c4cc(OC)c(OC)c(OC)c4)cnc23)cc(OC)c1OC , no comment.
-- reply < 5.00

-- ask State recorded pIC50 with MCF7, entry COc1cc(-c2ccc3[nH]nc(-c4ccc(C#N)cc4)c3c2)cc(OC)c1OC , no comment.
-- reply < 5.00

-- ask State recorded pIC50 with MCF7, entry CCCCn1ccc2c(-c3nc4c(-c5cc(OC)c(OC)c(OC)c5)cccc4[nH]3)cccc21 , no comment.
-- reply < 5.00

-- ask State recorded pIC50 with MCF7, entry COc1ccc(-c2cc3nccc(-c4cc(OC)c(OC)c([Se]C)c4)n3n2)cc1[N+](=O)[O-] , no comment.
-- reply 5.21

-- ask State recorded pIC50 with MCF7, entry COc1cc(-c2ccc3[nH]nc(-c4ccccc4)c3c2)cc(OC)c1OC , no comment.
-- reply < 5.00

---

Test system: MCF7
Test: Antiproliferative activity against human MCF7 cells assessed as reduction in cell viability measured after 48 hrs by MTT assay
Format: functional, cell-based
Conditions: MCF7, 48 h
Observed property: pIC50
Would you please state pIC50, meaning minus log10 of the concentration in mol/L, as a bare number?

-- ask State recorded pIC50 with MCF7, entry COc1cc(-c2n[nH]c3ccc(-c4ccc(C#N)cc4)cc23)cc(OC)c1OC , no comment.
-- reply 5.98

-- ask State recorded pIC50 with MCF7, entry COc1ccc(-c2ccc3[nH]nc(-c4cc(OC)c(OC)c(OC)c4)c3c2)cc1 , no comment.
-- reply 7.43

-- ask State recorded pIC50 with MCF7, entry COc1cc(-c2n[nH]c3ccc(-c4ccc5c(ccn5C)c4)cc23)cc(OC)c1OC , no comment.
-- reply 7.59

-- ask State recorded pIC50 with MCF7, entry COc1cc(-c2ccnc3cc(-c4ccccc4)nn23)cc([Se]C)c1OC , no comment.
-- reply 5.50

-- ask State recorded pIC50 with MCF7, entry COc1cc(-c2n[nH]c3ccc(-c4ccc(C(=N)NO)cc4)cc23)cc(OC)c1OC , no comment.
-- reply 5.50

---

Test system: MCF7
Assay: Antiproliferative activity against human MCF7 cells assessed as reduction in cell viability measured after 48 hrs by MTT assay
Type: functional, cell-based
Settings: MCF7, 48 h
For each record, write down the corresponding IC50.
Report as a plain number; the unit nM is understood.

-- ask Name the recorded IC50 of the item COc1cc(-c2n[nH]c3ccc(-c4ccccc4)cc23)cc(OC)c1OC in your answer.
-- reply 245

-- ask Name the recorded IC50 of the item COc1cc(-c2cccc3[nH]c(-c4ccc5c(ccn5C)c4)nc23)cc(OC)c1OC in your answer.
-- reply 700

-- ask Name the recorded IC50 of the item COc1cc(-c2n[nH]c3ccc(-c4ccc(C)cc4)cc23)cc(OC)c1OC in your answer.
-- reply 43

-- ask Name the recorded IC50 of the item COc1cc(-c2ccnc3cc(-c4cn(CO)c5ccccc45)nn23)cc([Se]C)c1OC in your answer.
-- reply 313

-- ask Name the recorded IC50 of the item COc1cc(-c2ccnc3cc(-c4ccc(S(C)(=O)=O)cc4)nn23)cc([Se]C)c1OC in your answer.
-- reply 3160

-- ask Name the recorded IC50 of the item COc1cc(-c2ccnc3cc(-c4ccc5c(ccn5C)c4)nn23)cc([Se]C)c1OC in your answer.
-- reply 123

-- ask Name the recorded IC50 of the item COc1cc(-c2ccnc3cc(-c4ccc5cnn(C)c5c4)nn23)cc([Se]C)c1OC in your answer.
-- reply 1180

-- ask Name the recorded IC50 of the item COc1cc(-c2ccnc3cc(-c4ccc(C)cc4)nn23)cc([Se]C)c1OC in your answer.
-- reply 168

Every entry's value here was drawn from ChEMBL document CHEMBL4808173.
